# Experimental Target: Complement factor D (Homo sapiens, UniProt P00746)
# Sequence (P00746 whole entry): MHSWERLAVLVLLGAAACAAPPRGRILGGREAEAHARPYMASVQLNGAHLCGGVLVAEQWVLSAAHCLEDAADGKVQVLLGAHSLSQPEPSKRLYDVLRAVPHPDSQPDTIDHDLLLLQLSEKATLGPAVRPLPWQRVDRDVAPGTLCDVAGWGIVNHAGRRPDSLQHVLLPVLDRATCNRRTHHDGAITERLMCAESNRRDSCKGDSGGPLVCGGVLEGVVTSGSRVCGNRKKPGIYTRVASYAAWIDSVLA
# Experimental Details: Inhibition Assay: Human factor D (purified from human serum, Complement Technology, Inc.) at 80 nM final concentration is incubated with test compound at various concentrations for 5 minutes at room temperature in 50 mM Tris, 1M NaCl, pH 7.5. A synthetic substrate Z-L-Lys-SBzl and DTNB (Ellman's reagent) are added to final concentrations of 10 μM each. The increase in color is recorded at OD405 nm in a microplate in kinetic mode over 30 minutes with 30 second time points in a […]. IC50 values are calculated by non-linear regression from the percentage of inhibition of complement factor D activity as a function of test compound concentration.
Measured IC50, listed per entry for reference.

Compound	Reading
NC(=O)c1cn(CC(=O)N2C[C@H](F)C[C@H]2C(=O)Nc2cccc(-c3ccccc3Cl)c2F)c2ccsc12	< 1000 nM

Now let's try a different one.
API: value(readout=IC50, system=Complement factor D (Homo sapiens, UniProt P00746)) for record NC(=O)c1nn(CC(=O)N2C[C@H](F)C[C@H]2C(=O)Nc2cccc(Br)n2)c2c1C=CC1N=C(c3cccc(Cl)c3)N=C21 (some centres not stated) < 1000 nM
